Parameter: pIC50. Scope: all listed entries.
- System: Aβ40 in conditioned medium of cells stably expressing Amyloid Precursor Protein (APP) (HEK cell)
- Assay remarks: In vitro BACE cell-based assay (HEK cell assay, Aβ40 sandwich ELISA)
- Condition: Homo sapiens, HEK293; IC50 range class; inhibition of Aβ40 after 24 h incubation
pIC50: −log10 of the molar value.

Worked cases, pIC50 given:
{"columns": ["Compound", "pIC50"],
 "data": [
  ["Cc1ccccc1-c1ccc2nc(N)c(COc3cc(C(F)(F)F)ncn3)cc2c1 [Example 11]", "< 5.30"],
  ["Cc1ccccc1-c1ccc2nc(N)c(CCc3cc(C(C)(C)C)ncn3)cc2c1 [Example 8]", "5.30 to 6.00"],
  ["Cc1cccc(C(=O)N2CCCC2)c1-c1ccc2nc(N)c(COc3cc(C(F)(F)F)ncn3)cc2c1 [Example 34]", "5.30 to 6.00"]
]}

query: Form field: reported pIC50 of CCc1cc(OCc2cc3cc(-c4ccccc4C)ccc3nc2N)ncn1 [Example 14]
result: < 5.30

query: Then what about the compound Cc1ccccc1-c1ccc2nc(N)c(C=Cc3cnn(C4CCCCC4)c3)cc2c1 [Example 24] ?
result: < 5.30

Source listed as patent US8822485B2.
